Measured values drawn from ChEMBL document CHEMBL5113480 for this set.

- assay_protocol: Selectivity index, ratio of CC50 for cytotoxicity against human MT4 cells to EC50 of Anti-HIV activity against HIV-1 IIIB infected in human MT4 cells
- Assay type: toxicity, cell-based
- setup_conditions: read-out: Ratio CC50/EC50
Quick reference: selectivity ratio of the listed items.
Hey, just send me the number, nothing else.

Cc1cccc(-c2cc(C#N)cc(Oc3c(C(F)(F)F)ccn(Cc4n[nH]c(=O)n4C)c3=O)c2)c1    2020
Cc1cc(Oc2c(C(F)(F)F)ccn(Cc3n[nH]c(=O)n3C)c2=O)ccc1-c1cccc(F)c1    20.1
Cn1c(Cn2ccc(C(F)(F)F)c(Oc3c(F)cc(-c4ccc(F)c(C#N)c4)cc3F)c2=O)n[nH]c1=O    30.7
COc1cc(-c2ccc(C#N)cc2)ccc1Oc1c(C(F)(F)F)ccn(Cc2n[nH]c(=O)n2C)c1=O    17.6
Cn1c(Cn2ccc(C(F)(F)F)c(Oc3ccc(-c4ccc(F)c(C#N)c4)c(F)c3)c2=O)n[nH]c1=O    78.5
Cn1c(Cn2ccc(C(F)(F)F)c(Oc3ccc(-c4cccc(C#N)c4)cc3F)c2=O)n[nH]c1=O    9.6
Cc1cc(-c2ccc(C#N)cc2)ccc1Oc1c(C(F)(F)F)ccn(Cc2n[nH]c(=O)n2C)c1=O    21.7
Cc1cc(Oc2c(C(F)(F)F)ccn(Cc3n[nH]c(=O)n3C)c2=O)ccc1-c1ccc(C#N)cc1    24

Then there is this compound:
Asked: Note selectivity ratio for the compound shown: Cn1c(Cn2ccc(C(F)(F)F)c(Oc3ccc(-c4cc(F)cc(C#N)c4)cc3Cl)c2=O)n[nH]c1=O
Given back: 5.71
